Attribution: the supplement of paper PMC7877785

# ASSAY_NOTES: self-splicing fitness, log relative to wild type (ln ratio); higher = more splicing; Tetrahymena group I intron in knt gene, E. coli kanamycin selection, DiMSum; sequences stand for … in CUCUCU…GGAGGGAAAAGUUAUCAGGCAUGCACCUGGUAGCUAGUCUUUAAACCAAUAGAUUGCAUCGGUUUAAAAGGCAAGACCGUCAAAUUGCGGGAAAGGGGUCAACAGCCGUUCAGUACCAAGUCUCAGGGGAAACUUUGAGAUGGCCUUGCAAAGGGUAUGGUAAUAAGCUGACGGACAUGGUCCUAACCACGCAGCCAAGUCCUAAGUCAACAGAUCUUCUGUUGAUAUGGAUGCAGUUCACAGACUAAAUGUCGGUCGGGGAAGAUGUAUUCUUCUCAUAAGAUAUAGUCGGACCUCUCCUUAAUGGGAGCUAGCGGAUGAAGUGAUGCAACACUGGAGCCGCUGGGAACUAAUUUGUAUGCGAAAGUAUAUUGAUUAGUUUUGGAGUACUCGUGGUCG;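 also: selection with 25 µg/mL kanamycin versus none on LB agar overnight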
# CONDITION_SET: 37 °C
ASSAY_METRIC: self-splicing fitness (ln)
The answer should be a number; do not append a unit.

[[record]]
residue_string = "GAACAGCAAUAUUACGAGAC"
measurement = -1.21

[[record]]
residue_string = "UGAUAGCAAUAUUACGCGCA"
measurement = 0.2

[[record]]
residue_string = "GUUCAGCAAUAUUACGCCCA"
measurement = -1.26

[[record]]
residue_string = "GUGGAGCAAUAUUACGCUCG"
measurement = -1.39

[[record]]
residue_string = "GCACAGCAAUAUUACGCAAU"
measurement = -0.864

[[record]]
residue_string = "GGCCAGCAAUAUUACGUACC"
measurement = 1.43

[[record]]
residue_string = "AACGAGCAAUAUUACGUGAU"
measurement = -0.913


## Input Entry under review: `AAAAAGCAAUAUUACGGGAU` . Reported self-splicing fitness (ln)?
## Output -1.23
